Provide the recorded pEC50 for the entries that follow.
- Target entity: P2Y purinoceptor 6 (Homo sapiens, UniProt Q15077)
- Sequence (Q15077 whole entry): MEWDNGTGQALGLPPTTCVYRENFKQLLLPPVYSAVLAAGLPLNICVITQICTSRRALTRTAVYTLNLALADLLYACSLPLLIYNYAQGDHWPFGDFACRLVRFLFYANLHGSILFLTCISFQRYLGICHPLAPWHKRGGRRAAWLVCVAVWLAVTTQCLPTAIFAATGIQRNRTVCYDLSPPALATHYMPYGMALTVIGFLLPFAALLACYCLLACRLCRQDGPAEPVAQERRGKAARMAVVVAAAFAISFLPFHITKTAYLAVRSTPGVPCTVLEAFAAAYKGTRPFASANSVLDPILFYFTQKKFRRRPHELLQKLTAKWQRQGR
- Assay info: Agonist activity at human P2Y6 receptor expressed in 1321N1 cells assessed as IP accumulation by SPA
pEC50: −log10 of the molar value.

Lab note: `Cc1cc(=O)n([C@@H]2O[C@H](COP(=O)(O)OP(=O)(O)OP(=O)(O)O)[C@@H](O)[C@H]2O)c(=O)[nH]1` gave pEC50 of < 6.00

# pEC50 (compound: `CCCc1cc(=O)n([C@@H]2O[C@H](COP(=O)(O)O)[C@@H](O)[C@H]2O)c(=O)[nH]1` ) is < 4.00

Documented pEC50 of `O=C(Cn1c(=O)ccn([C@@H]2O[C@H](COP(=O)(O)OP(=O)(O)OP(=O)(O)O)[C@@H](O)[C@H]2OP(=O)(O)O)c1=O)c1ccccc1` : < 6.00

// `Cn1c(=O)ccn([C@@H]2O[C@H](COP(=O)(O)O)[C@@H](O)[C@H]2O)c1=O` : pEC50 value = ≤ 4.00

Documented pEC50 of `O=c1[nH]c(=O)n([C@@H]2O[C@H](COP(=O)(O)OP(=O)(O)OP(=O)(O)O)[C@@H](O)[C@H]2O)cc1Br` : 6.54
